- Procedure details: physchem
- Experimental parameters: pH 6, aqueous buffer, thermodynamic from solid, water solubility
Property: solubility at 24 h

{"Molecule": "CCc1c2c(nc3ccc(O[C@@H]4O[C@H](C(=O)O)[C@@H](O)[C@H](O)[C@H]4O)cc13)-c1cc3c(c(=O)n1C2)COC(=O)[C@]3(O)CC [SN38-G, SN38 glucuronide]", "Property": "solubility at 24 h", "Assay value": "~59500 µg/mL"}
{"Molecule": "CCOC(=O)[C@H]1O[C@@H](Oc2ccc3nc4c(c(CC)c3c2)Cn2c-4cc3c(c2=O)COC(=O)[C@]3(O)CC)[C@H](O)[C@@H](O)[C@@H]1O", "Property": "solubility at 24 h", "Assay value": "~1500 µg/mL"}
{"Molecule": "CCc1c2c(nc3ccc(O)cc13)-c1cc3c(c(=O)n1C2)COC(=O)[C@]3(O)CC [SN38, 7-ethyl-10-hydroxycamptothecin]", "Property": "solubility at 24 h", "Assay value": "~7.45 µg/mL"}
{"Molecule": "CCc1c2c(nc3ccc(O[C@@H]4O[C@H](C(=O)OC)[C@@H](O)[C@H](O)[C@H]4O)cc13)-c1cc3c(c(=O)n1C2)COC(=O)[C@]3(O)CC", "Property": "solubility at 24 h", "Assay value": "~3860 µg/mL"}
